Sourced from PubChem BioAssay (NCI)

- Test system: HCC-2998 colon
- protocol summary: NCI tumour cell line growth inhibition, 48 h
property label: TGI

> print(dat)
                                   molecule  reported.result
1  COc1cc2c(c(O)c1O)-c1ccc(OC)c(=O)cc1C(NC(C)=O)CC2 (stereo not drawn)        > 78.1 µM
2    COc1cc(CC(C)N)ccc1O (stereo not drawn)         > 100 µM
3  COc1ccc(-c2csc(NC(=O)CSc3nc(C)c(-c4ccccc4)n3Nc3ccccc3)n2)cc1         > 100 µM

====

- System: TK-10 renal
- protocol summary: NCI tumour cell line growth inhibition, 48 h
Where a SMILES comes first, the peptide text is derived from it. The star is where a group is joined. Bn = c1ccc(C*)cc1
property label: TGI

molecule	subject of test	property label	reported result
O=C1CC(Sc2nc3ccc(I)cc3c(=O)n2Cc2ccccc2)C(=O)NN1 (stereo not given)	TK-10 renal	TGI	30.5 µM
O=C(CNCc1ccccc1)Oc1c(Cl)c(Cl)c(Cl)c(Cl)c1Cl	TK-10 renal	TGI	> 100 µM
CN(C)P(=O)(Oc1occc1C(O)Cc1ccccc1)N(C)C (stereo not given)	TK-10 renal	TGI	> 100 µM
CSC(SC)=C1C(=O)N(c2ccccc2)N=C1C	TK-10 renal	TGI	> 100 µM
COCOc1ccc(C2(O)Oc3cc(OCOC)ccc3C2C)c(O)c1 (stereo not given)	TK-10 renal	TGI	32.5 µM
CC1=C[C@@H](C)C[C@]2(C)CC[C@H](O2)[C@]23CC[C@](C(=O)O)(C[C@H](O2)[C@@H]2O[C@@](C)(CC2=O)[C@@H](O)[C@H]2CC[C@@]4(CCC[C@@H](O4)[C@H](C)C(=O)O[C@H]4C[C@H]([C@]5(O)OCC[C@H](C)[C@@H]5O)O[C@H]4C=C1)O2)O3	TK-10 renal	TGI	> 10 µM
COC(=O)C(CC(C)C)NC(=O)C(N)Cc1ccc(OCc2ccccc2)cc1 (stereo not given) (H-Tyr(Bn)-Leu-OMe; configuration not given here)	TK-10 renal	TGI	> 10 µM
COc1cc2c(c(O)c1O)-c1ccc(OC)c(=O)cc1C(NC(C)=O)CC2 (stereo not given)	TK-10 renal	TGI	> 100 µM
COc1ccc2c(c1)CCN=C2c1ccccc1CCCCl	TK-10 renal	TGI	> 100 µM
O=C(NCc1ccc(S(=O)(=O)c2cc(F)cc(F)c2)cc1)c1ccc2nccn2c1	TK-10 renal	TGI	> 62.9 µM
COC(C(=O)[C@@H](O)[C@@H](C)O)[C@@H]1Cc2cc3cc(O[C@H]4C[C@@H](O[C@H]5C[C@@H](O)[C@H](O)C(C)O5)[C@H](O)C(C)O4)c(C)c(O)c3c(O)c2C(=O)[C@H]1O[C@H]1C[C@@H](O[C@H]2C[C@@H](O[C@H]3C[C@@H](O)[C@H](OC)C(C)O3)[C@@H](O)C(C)O2)[C@H](O)C(C)O1 (stereo not given in full)	TK-10 renal	TGI	0.322 µM
CCOC(=O)[C@@H]1ON2O[C@@H](OC3CCCC3(c3ccccc3)c3ccccc3)C[C@H]3OC(=O)[C@@H]1C32 (stereo not given in full)	TK-10 renal	TGI	43.6 µM
Cc1cc(/N=C/c2ccc(C#N)cc2)n(-c2ccccc2)n1	TK-10 renal	TGI	> 100 µM
S=C1SC2=Nc3ccccc3CN2C2=NCCN12	TK-10 renal	TGI	> 100 µM
Cc1cccc(C(C)C)c1NC(=O)C(=O)C(C(=O)c1ccccc1F)C1OC(=O)c2ccccc21 (stereo not given)	TK-10 renal	TGI	91.1 µM
O=C(OCc1ccccc1)C(Cc1ccccc1)N(Cc1ccccc1)Cc1ccccc1 (stereo not given)	TK-10 renal	TGI	> 100 µM
O=c1c2ccccc2nc(-c2ccccc2)n1NC(=S)Nc1ccccc1	TK-10 renal	TGI	> 100 µM
COc1ccc(-c2csc(NC(=O)CSc3nc(C)c(-c4ccccc4)n3Nc3ccccc3)n2)cc1	TK-10 renal	TGI	> 100 µM
Cc1nn(C(=O)c2ccc(Cl)cc2)c2c1C(c1ccc(O)cc1)SC(N)=N2 (stereo not given)	TK-10 renal	TGI	> 10 µM
Cn1c(=O)c2c(ncn2CC(=O)Nc2ccc(-c3ccccc3)nn2)n(C)c1=O	TK-10 renal	TGI	> 100 µM
COC(=O)c1cc(C)ccc1CC(Cc1ccc(C)cc1)C(=O)OC (stereo not given)	TK-10 renal	TGI	> 100 µM
CC1=C(C(=O)NNS(=O)(=O)c2ccc(C)cc2)CC(C(=O)NNS(=O)(=O)c2ccc(C)cc2)=C(C)N1	TK-10 renal	TGI	> 100 µM
CCCCC/C(C=O)=C\c1ccccc1	TK-10 renal	TGI	> 100 µM
O/C(=C\c1nc2ccccc2nc1NC12CC3CC(CC(C3)C1)C2)c1ccc(Br)cc1	TK-10 renal	TGI	> 10 µM
CCCCCCCCCCN1CCC(N2CCCCC2)CC1	TK-10 renal	TGI	5.71 µM
Cc1cn([C@H]2C[C@](C)(CO)N(C)O2)c(=O)[nH]c1=O	TK-10 renal	TGI	> 100 µM
CC(C)(C)OC(=O)C1C(=O)NC(=O)CC1C(COCc1ccccc1)OCc1ccccc1 (stereo not given)	TK-10 renal	TGI	> 100 µM
COc1cc(OCc2ccc3nc(OC)c(OC)nc3c2)cc(OC)c1OC	TK-10 renal	TGI	> 10 µM
CC(O)CC(O)(C(F)(F)F)C(F)(F)F (stereo not given)	TK-10 renal	TGI	> 10 µM
COP(=O)(OC)C12CCOCCN1c1ccccc1C2=O (stereo not given)	TK-10 renal	TGI	> 100 µM
CCOC(=O)C1CN(C2CC2)CCC1=O (stereo not given)	TK-10 renal	TGI	> 100 µM
Cn1ccnc1Sc1ccc(C=Nc2ccc3nc(SCC(=O)NC4CCCCC4)sc3c2)cc1[N+](=O)[O-]	TK-10 renal	TGI	32.2 µM
Cc1cc2c(nn1)-c1ccccc1C2=O	TK-10 renal	TGI	> 10 µM
COc1ccc2c(Oc3ccc(NC(=O)c4c(C)n(CC(C)(C)O)n(-c5ccccc5)c4=O)nc3)ccnc2c1	TK-10 renal	TGI	19.8 µM
OC1(c2ccc(Cl)cc2)c2ccc(CN3CCCC3)cc2C2=NCCN21 (stereo not given)	TK-10 renal	TGI	17.4 µM

====

Attribute: TGI
- Tested on: K-562 leukemia
- protocol summary: NCI tumour cell line growth inhibition, 48 h
Where a SMILES comes first, the peptide text is derived from it. The star is where a group is joined. Bn = c1ccc(C*)cc1
property label: TGI

> print(dat)
                                    compound  reported.result
 1            CC(C)(C)c1ccc(OCC(=O)O)c(Cl)c1         > 100 µM
 2           O=c1[nH]c(=O)n([C@H]2CCCO2)cc1F        > 5000 µM
 3  NS(=O)(=O)c1ccc(NC(NC(=O)C(C(F)(F)F)C(F)(F)F)(C(F)(F)F)C(F)(F)F)cc1         > 100 µM
 4  O=C(O)CN(c1ccccc1)S(=O)(=O)c1ccc([N+](=O)[O-])cc1         > 100 µM
 5  COc1ccc(N=C2C(=S)N(c3ccc(OC)cc3)/C(=N/S(=O)(=O)c3ccccc3)N2c2ccccc2)cc1         > 100 µM
 6             CN1COCc2cc3cc4c(cc3nc21)OCCO4         > 100 µM
 7  COC(=O)C(CC(C)C)NC(=O)C(N)Cc1ccc(OCc2ccccc2)cc1 (stereo unspecified) (H-Tyr(Bn)-Leu-OMe; configuration not given here)          > 10 µM
 8  COc1cc(CNc2nc3cc(C(F)(F)F)ccc3nc2-c2ccccc2)cc(OC)c1OC         > 100 µM
 9  C=C(C)[C@@]1(O[Si](C)(C)C)CCCC[C@@H]1CC(Sc1ccccc1)Sc1ccccc1          41.2 µM
10  COc1cc(C(=O)N2CCc3c([nH]c4c([N+](=O)[O-])c(OC)ccc34)C2C)cc(OC)c1OC (stereo unspecified)         > 100 µM
11  O=C(NCc1ccc(S(=O)(=O)c2cc(F)cc(F)c2)cc1)c1ccc2nccn2c1         > 100 µM
12       Cc1cn2c(C)csc2c1P(=O)(OC(C)C)OC(C)C         > 100 µM
13  COc1cc2c(cc1OC)C13CC[N+]4(C)CC5=CCOC6CC(=O)N2C1C6C5CC34[O-] (stereo unspecified)         > 100 µM
14                  CCCCC#CS(=O)(=O)C(F)(F)F         > 100 µM
15  CCOC(=O)Cn1c(=O)n(C)c(=O)c2c1ncn2Cc1ccccc1         > 100 µM
16  COc1ccc(/C=N/N2C(=O)c3c(N)c(C#N)c(-c4ccccc4)c(-c4ccccc4)c3C2=O)cc1         > 100 µM
